Recorded values, source PubChem BioAssay AID1851.

Target: Cytochrome P450 1A2 (Homo sapiens) (UniProt P05177)
Sequence (P05177 whole entry, looked up): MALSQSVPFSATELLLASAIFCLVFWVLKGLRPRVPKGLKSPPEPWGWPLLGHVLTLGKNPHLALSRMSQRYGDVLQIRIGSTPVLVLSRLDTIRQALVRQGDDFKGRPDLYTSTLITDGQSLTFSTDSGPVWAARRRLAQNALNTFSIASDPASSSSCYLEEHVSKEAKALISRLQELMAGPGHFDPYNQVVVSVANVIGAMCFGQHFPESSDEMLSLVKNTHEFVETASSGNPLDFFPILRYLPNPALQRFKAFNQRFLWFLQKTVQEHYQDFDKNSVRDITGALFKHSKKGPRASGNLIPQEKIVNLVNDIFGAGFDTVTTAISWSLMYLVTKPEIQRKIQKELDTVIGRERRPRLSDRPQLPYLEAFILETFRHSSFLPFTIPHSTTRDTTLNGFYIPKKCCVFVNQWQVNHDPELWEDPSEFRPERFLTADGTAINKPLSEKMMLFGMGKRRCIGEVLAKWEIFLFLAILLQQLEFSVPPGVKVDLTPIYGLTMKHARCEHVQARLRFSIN
Assay: Cytochrome panel assay with activity outcomes
Settings: recombinant CYP, pro-luciferin dealkylation, luminescence, p450-cyp1a2; series mostly up to 57.1 µM
Procedure: The P450 gene superfamily is involved in the metabolism and clearance of xenobiotics. This assay used various human CYP P450 isozymes to measure the dealkylation of various pro-luciferin substrates to luciferin. The luciferin is then measured by luminescence after the addition of a luciferase detection reagent. […] Inhibitors and some substrates limit the production of luciferin, and decrease measured luminescence. […] 8, Detection, 1 sec, ViewLux luminescent read […]
Out of some 16,000 compounds screened, about 5,700 (36%) were called active. Inconclusive results (about 24%) are left out. Calls follow the shape of the dose curve; as a rule, active = well fitted curve in the direction sought with a large enough effect; inconclusive = small, poorly fitted or top-dose-only effect, or effect the other way; inactive = no such curve, though single readings can be large or run the other way. The list shows a part of the results.
Outcomes: 1.0 (active), 0.0 (inactive)

1) Cc1cc(C(C)(C)C)cc(C)c1CC1=NCCN1
0.0
2) O=P(Nc1c(Cl)cccc1Cl)(c1ccccc1)c1nc2c(s1)CCCC2 (stereo not given)
0.0
3) COCC(=O)N1CCC2(CCCN(Cc3ccncc3)C2)CC1
0.0
4) c1ccc2cc(CC3=NCCN3)ccc2c1
0.0
5) CC(C)CNC(=S)NC1CC2CCCC(C1)N2Cc1ccco1 (stereo not given)
0.0
6) COc1ccc2[nH]c3c(c2c1)CCNC3
1.0
7) Cn1cnc(CCN)c1
0.0
8) CCOC(C(=O)OCCCN(CC)CC)(c1ccccc1)c1ccccc1
0.0
9) S=C(Nc1ccc(Cl)cc1)NC1CC2CCCC(C1)N2C1CCCC1 (stereo not given)
0.0
10) C(=NC12CN3CN(CN(C3)C1)C2)c1cccs1
0.0
11) COC1=C[C@H]2C3=C([C@H]2C1=O)[C@H](NC(C)=O)CCc1cc(OC)c(OC)c(OC)c13
0.0
12) Cc1cc2c(C(F)(F)F)cc(=O)oc2c2c1NCCC2
1.0
13) CCNC(=O)[C@@H]1O[C@@H](n2cnc3c(N)ncnc32)[C@@H](O)[C@H]1O
0.0
14) C[N+]1([O-])[C@@H]2CC(OC(=O)[C@@H](CO)c3ccccc3)C[C@@H]1[C@H]1O[C@H]12 (stereo not given in full)
0.0
15) CC[N@+]1(C)CCC[C@@H](OC(=O)C(O)(c2ccccc2)c2ccccc2)C1
0.0
16) Cc1ccccc1OCCN=Cc1c(O)n(C)c(=O)n(C)c1=O
1.0
17) Clc1cncc(N2CCNCC2)n1
1.0
18) C=C1C(O)(c2ccccc2)C2CC[N+]1(C)CC2 (stereo not given)
0.0
19) COc1ccc2[nH]c3c(c2c1)CCN=C3C
1.0
20) CC(=O)N[C@@H]1CCSC1=O
0.0
21) O=C(CNS(=O)(=O)c1cccs1)N1CCC2(CC1)OCCO2
0.0
22) Cc1cc(C)nc(NC2=NCCS2)n1
1.0
23) CCCCn1c(O)c(C=NCCN2CCCCC2)c(=O)[nH]c1=O
0.0
24) Cc1sc2ccccc2c1CC1=NCCN1
1.0
25) Cc1o[nH]c(=O)c1C[C@H](N)C(=O)O
0.0

====

Target: Cytochrome P450 1A2 (Homo sapiens) (UniProt P05177)
Assay: Cytochrome panel assay with activity outcomes; as to activity, negative = inhibition: % is scaled to controls: 0 for no effect and ±100 for the full control effect
Details: recombinant CYP, pro-luciferin dealkylation, luminescence, p450-cyp1a2; series mostly up to 57.1 µM
In all, about 16,000 compounds went through this assay and about 5,700 (36%) were called active. Roughly 24% stayed inconclusive and do not appear here. This is one part of the list.
result type: activity, negative = inhibition

1. C[C@]1(O)CC[C@H]2[C@@H]3[C@@H](O)CC4=CC(=O)CC[C@@]4(C)[C@H]3CC[C@]21C
1.44% [at 2.29 µM] (inactive)
2. CC(C)C(=O)CP(=O)(O)O
-6.25% [at 11.4 µM] (inactive)
3. CC1(C)N=C(N)N=C(N)N1c1cccc(C(=O)Nc2ccc(S(=O)(=O)F)cc2)c1
-15.8% [at 11.4 µM] (inactive)
4. C=C(C)c1ccccc1 (tested in a mixture with another compound)
-19.6% [at 2.29 µM] (inactive)
5. O=[N+]([O-])c1cc(-c2ccc([As](=O)(O)O)cc2)ccc1[As](=O)(O)O
-10.9% [at 2.29 µM] (inactive)
6. C[C@@H]1O[C@H](OC2[C@@H](O)[C@H](O)C(O)[C@H](O)[C@H]2O)[C@@H](N)C[C@@H]1N=C(N)C(=O)O (stereo partly specified)
1.22% [at 2.29 µM] (inactive)
7. CC(C)c1nccn1Cc1ccc(Cl)cc1Cl
-14.7% [at 11.4 µM] (inactive)
8. O[C@H](CN1CC1)[C@@H](O)CN1CC1
1.6% [at 11.4 µM] (inactive)
9. C[N+](C)(C)[C@H](Cc1c[nH]c(=S)[nH]1)C(=O)O
-18.9% [at 11.4 µM] (inactive)
10. CC1(C)[C@@H]2CC[C@]1(C)CN(CCC[N+](C)(C)C)C2
-6.81% [at 2.29 µM] (inactive)
11. N=C(N)n1cc(/C=N\N=C(N)N)cn1
7.8% [at 2.29 µM] (inactive)

====

Target: Cytochrome P450 1A2 (Homo sapiens)
Assay: Cytochrome panel assay with activity outcomes
Settings: recombinant CYP, pro-luciferin dealkylation, luminescence, p450-cyp1a2; series mostly up to 57.1 µM
Out of some 16,000 compounds screened, about 5,700 (36%) were called active. About 24% were inconclusive and are not listed. Calls follow the shape of the dose curve; as a rule, active = well fitted curve in the direction sought with a large enough effect; inconclusive = small, poorly fitted or top-dose-only effect, or effect the other way; inactive = no such curve, though single readings can be large or run the other way. The list shows a part of the results.
Outcome codes: y = active, n = inactive

1. CC(C)(C)c1cc(C=C(C#N)C#N)cc(C(C)(C)C)c1O
y
2. COc1cc(C=C(C#N)C#N)cc(O)c1O
y
3. COc1cc2c3cc1Oc1cc(ccc1O)C[C@@H]1c4c(cc(OC)c(O)c4Oc4cccc(c4)C[C@H]3N(C)CC2)CC[N+]1(C)C
n
4. COc1cc([C@@H](O)CN)ccc1O
n
5. CCCN1CCc2cc(O)cc3c2[C@H]1Cc1ccc(O)c(O)c1-3
y
6. CN1CCc2cc(O)cc3c2[C@H]1Cc1ccc(O)c(O)c1-3
y

====

Target: Cytochrome P450 1A2 (Homo sapiens)
Assay: Cytochrome panel assay with activity outcomes
Conditions: recombinant CYP, pro-luciferin dealkylation, luminescence, p450-cyp1a2; series mostly up to 57.1 µM
Protocol: The P450 gene superfamily is involved in the metabolism and clearance of xenobiotics. This assay used various human CYP P450 isozymes to measure the dealkylation of various pro-luciferin substrates to luciferin. The luciferin is then measured by luminescence after the addition of a luciferase detection reagent. […] Inhibitors and some substrates limit the production of luciferin, and decrease measured luminescence. […] 8, Detection, 1 sec, ViewLux luminescent read […]
Among all 16,000 compounds or so, about 5,700 (36%) were called active. Inconclusive results (about 24%) are left out. Calls follow the shape of the dose curve; as a rule, active = well fitted curve in the direction sought with a large enough effect; inconclusive = small, poorly fitted or top-dose-only effect, or effect the other way; inactive = no such curve, though single readings can be large or run the other way. The list shows a part of the results.
Labels: yes for active, no for inactive

1) C=C(CC1(C(C)NP(=O)(c2ccccc2)c2ccccc2)CC1)c1ccccc1 (configuration not stated)
yes
2) C1CCc2nnnn2CC1
no
3) COc1ccc(C(=O)NC2CC3CCCC(C2)N3CC(C)C)cc1OC (configuration not stated)
no
4) CC(C)COC(=O)OCN1C(=O)CN(CCN2CC(=O)N(COC(=O)OCC(C)C)C(=O)C2)CC1=O
no
5) NN=C(N)N
no
6) CC(C)[C@@]1(NC(=O)[C@@H]2C[C@H]3c4cccc5[nH]cc(c45)C[C@@H]3N(C)C2)O[C@]2(O)[C@H]3CCCN3C(=O)CN2C1=O
no
7) CC(=O)NBr
no
8) CCS(=O)(=O)Nc1cccc(C(=C2CCCCC2)c2cnc[nH]2)c1
yes
9) O=C(O)Cc1cnc[nH]1
no
10) Cn1ccnc1
no
11) COc1ccc2c(c1OC)CN1CCc3cc4c(cc3[C@H]1C2)OCO4
yes
12) CCOC(=O)c1c(NC(=O)C(c2ccccc2)c2ccccc2)sc2c1C1CCN2CC1
no

====

Target: Cytochrome P450 1A2 (Homo sapiens)
Assay: Cytochrome panel assay with activity outcomes
Settings: recombinant CYP, pro-luciferin dealkylation, luminescence, p450-cyp1a2; series mostly up to 57.1 µM
The campaign covered roughly 16,000 compounds. About 5,700 (36%) were called active. Another 24% or so got no clear call; they are omitted. Calls follow the shape of the dose curve; as a rule, active = well fitted curve in the direction sought with a large enough effect; inconclusive = small, poorly fitted or top-dose-only effect, or effect the other way; inactive = no such curve, though single readings can be large or run the other way. This is one part of the list.
Outcome codes: active, inactive

1) O=C1C=CC(=O)c2c1ccc1c2ccc2ccccc21
active
2) Ic1cncc(OC[C@@H]2CCN2)c1
active
3) CCOC(=O)C1Cc2c([nH]c3ccccc23)CN1 (stereo not given)
active
4) CNC(=O)OCC[N+](C)(C)C
inactive
5) Cn1cc(C(=O)C(=O)N[C@H]2CN3CCC2CC3)c2ccccc21
active
6) O=C1NC(=S)NC(=O)C1=Cc1cccc2cc3ccccc3cc12
active
7) O=C(O)CC[N+](=O)[O-]
inactive
8) CC[C@H](C)C(=O)O[C@@H]1[C@H](O)[C@@H]2[C@H](CN3C[C@@H](C)CC[C@@H]3[C@@]2(C)O)[C@@H]2C[C@@]34O[C@@]5(O)[C@@H](OC(=O)[C@](C)(O)CC)CC[C@@]3(C)[C@H]5[C@H](OC(C)=O)[C@@H](OC(C)=O)[C@H]4[C@]12O
inactive
9) CCN1C[C@]2(COC)CC[C@H](O)[C@@]34[C@@H]5C[C@H]6[C@@H](OC)[C@H]5[C@](O)(C[C@@H]6OC)[C@@](O)([C@@H](OC)[C@H]23)[C@@H]14
inactive
10) CCC(=O)Nc1ccc(N2CCN(CC)CC2)c(Cl)c1
inactive
